// values below are reported viability
Test: drug combination growth inhibition, ovarian cancer – cell-based, oncology-focused library, rucaparib conditional, profiling panel (AID 1508598)
Conditions: patient-derived ovarian cancer cells, CellTiter-Glo viability, 144 h; at 0.00122 µM; OCI-C5x cells; with rucaparib 10 µM; stronger effect = lower value; 100% = cells with rucaparib alone
Report as a plain number; the unit % is understood.

Some compounds with recorded viability:
compound-smiles	measured-endpoint	data-value
CC(C)(C)c1cnc(CSc2cnc(NC(=O)C3CCNCC3)s2)o1	viability	108
COc1cc2nccc(Oc3ccc(NC(=O)C4(C(=O)Nc5ccc(F)cc5)CC4)cc3)c2cc1OC	viability	115
C#CC[C@H](c1nc2cc(Cl)ccc2c(=O)n1Nc1ccccc1)N(CCCN)C(=O)c1cccc(Cl)c1F	viability	130
CC(C)c1ccccc1Cc1cc(C(=O)Nc2ccc(S(=O)(=O)c3ccccc3C(C)(C)C)cc2)c(O)c(O)c1O	viability	103
Cc1ccc(NC(=O)c2cccc(C(C)(C)C#N)c2)cc1Nc1ccc2ncn(C)c(=O)c2c1	viability	129

Measured viability of O=C(Nc1ccc(OC(F)(F)F)cc1)c1sccc1NCc1ccnc2ccccc12 : 108

Measured viability of C=CC(=O)Nc1cc(Nc2nccc(-c3cn(C)c4ccccc34)n2)c(OC)cc1N(C)CCN(C)C : 106

Measured viability of CCOc1cc2ncc(C#N)c(Nc3ccc(F)c(Cl)c3)c2cc1NC(=O)/C=C/CN(C)C : 115

Measured viability of NC(=O)c1ccc(I)c([N+](=O)[O-])c1 : 110
